Data origin: the Human Domainome abundance scans (Beltran et al. 2025)

B1: Storkhead-box protein 2, residues 64 to 141; numbered along this chain, Q9P2F5 (parent)
chain: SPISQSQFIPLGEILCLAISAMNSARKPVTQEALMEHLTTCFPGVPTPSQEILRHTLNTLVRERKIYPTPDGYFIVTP

Variants of: B1
ASSAY_NAME: abundance fitness (aPCA) (normalised: wild type 0, dead -1); higher = more abundant; growth selection in yeast, the domain comes from the species named
EXPERIMENTAL_CONDITIONS: Homo sapiens
Listed below: abundance fitness values for each entry.
Lab note: write the figure by itself, no unit.

These recorded examples may help you get a feel for the data.
A18P -0.887
I3T -0.024
T47A -0.082
T77Q -0.099

Given the entry `C16F` , report its measured abundance fitness.
-0.074
